# System: COLO 205 colon
# run-description: NCI-60 one-dose screen, 48 h
# setup-conditions: 10 µM
The panel holds about 83,000 compounds, 20% with a hit somewhere; the sample as a whole holds those more often. Active and inactive are the calls of the source. Rule for the calls: active = growth percent below 10; inactive = the rest.
Reply using exactly one outcome from 1.0 = active, 0.0 = inactive

Use the examples below as a reference point.
molecule | assigned-label
O=C(CCCCCCC(=O)Nc1ccccc1)NO | 1.0
COc1ccc(/C=c2\sc3n(c2=O)C(c2cc(OC)c(OC)c(OC)c2)C=C(c2ccc(OC)c(OC)c2)N=3)cc1OC (stereo not given) | 0.0
CCNCC(=O)Nc1ccc(C(=O)OCC)cc1 | 0.0
CN(C)CCCOc1ccc(NC2=C(Cl)C(=O)C(Nc3ccc(OCCCN(C)C)cc3)=C(Cl)C2=O)cc1 | 1.0
O=C(/C=C/C=C/c1c(C2CC2)nc2ccccc2c1-c1ccc(F)cc1)c1cccs1 | 1.0
CC(=O)Nc1cc2c(cc1Cl)Cc1cc(Cl)ccc1-2 | 0.0

Query string: State the result this test recorded for COc1ccc2cc(-c3nc4ccccc4s3)c(Cl)nc2c1OC .
Result string: 0.0

Query string: And then CCOc1ccccc1/C=N\N=C\c1ccccc1O , what is it?
Result string: 0.0

Query string: And then COc1ccc2c(c1)C(=O)/C(=C/c1ccc([N+](=O)[O-])o1)O2 , what is it?
Result string: 1.0

Query string: And then Cc1cn(-c2cccc(NC(=O)c3ccc(C)c(Nc4nccc(-c5cccnc5)n4)c3)c2)cn1 , what is it?
Result string: 0.0
